Test: chemical genetic growth profiling, strain panel (AID 1159580);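 note: tested at 20 µM; growth read once vehicle control cultures reached saturation at 30 °C; 1 = growth at the plate median or of vehicle wells; lower values mean less growth of the strain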
Conditions: S. cerevisiae deletion strains, growth OD, locus YLL026W, hits give low values
About 2,000 (36%) of roughly 5,500 compounds were called active. Another 18% or so got no clear call; they are omitted. The list shows a part of the results.
assayMetric: normalized growth
The answer should be written as a number, with no unit following it.

In: Indicate its recorded normalized growth; the molecule in question is CC1(C)Oc2ccc3ccc(=O)oc3c2CC1O (centres undefined)
Out: 0.977

In: Using the record for `CO[C@@H]1[C@@H](OC(N)=O)[C@@H](O)[C@H](Oc2ccc3c(O)c(NC(=O)c4ccc(O)c(CC=C(C)C)c4)c(=O)oc3c2C)OC1(C)C` , state its measured normalized growth.
Out: 1.04

In: # return recorded normalized growth for input COC(=O)C(N)CS (centres undefined)
Out: 0.978

In: Report normalized growth, nothing else, for this molecule: `COc1cc(C(=O)N2CCOCC2)cc(OC)c1OC`
Out: 0.984

In: Input `Nc1nc(/C(=C/CC(=O)O)C(=O)N[C@@H]2C(=O)N3C(C(=O)O)=CCS[C@H]23)cs1` , output reported normalized growth.
Out: 1.01

In: Read off the recorded normalized growth for NC[C@@H]1O[C@H](O[C@@H]2[C@@H](CO)OC(O[C@@H]3[C@@H](O)[C@H](N)C[C@H](N)[C@H]3O[C@H]3O[C@H](CO)[C@@H](O)[C@H](O)[C@H]3N)[C@@H]2O)[C@H](N)[C@@H](O)[C@@H]1O (some centres undefined)
Out: 0.987

In: In one line, give reported normalized growth of the entry CCCCCC(O)C1C(=O)OC(C)C(O)/C=C/C=C/C=C/C=C/C=C(\C)C(O)CC(O)CC(O)CC(O)CC(O)CC(O)CC1O (centres undefined) .
Out: 0.982

In: Tell me measured normalized growth for `CC(C)Nc1nc(Cl)nc(NC(C)C)n1` please.
Out: 0.991

In: Input CC(C)=CC1C(CO)C1(C)C (centres undefined) , output reported normalized growth.
Out: 1.02

Where do the numbers come from? From PubChem BioAssay AID1159580.
